MEASURED_TARGET: Squalene synthase (Rattus norvegicus, UniProt Q02769)
Construct: rat liver microsomal protein
Sequence (Q02769 whole entry): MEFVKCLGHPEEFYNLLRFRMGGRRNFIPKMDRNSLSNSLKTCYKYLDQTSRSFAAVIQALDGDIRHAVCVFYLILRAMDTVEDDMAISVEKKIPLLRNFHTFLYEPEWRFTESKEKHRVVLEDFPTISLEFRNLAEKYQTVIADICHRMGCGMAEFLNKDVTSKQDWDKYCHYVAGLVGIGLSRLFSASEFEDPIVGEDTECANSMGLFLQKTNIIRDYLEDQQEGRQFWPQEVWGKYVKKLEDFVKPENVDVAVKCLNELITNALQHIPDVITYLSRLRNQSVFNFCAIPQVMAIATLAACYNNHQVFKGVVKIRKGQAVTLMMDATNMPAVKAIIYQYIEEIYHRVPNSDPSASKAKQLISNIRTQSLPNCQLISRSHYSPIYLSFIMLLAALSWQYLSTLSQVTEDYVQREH
MEASUREMENT_DESCRIPTION: Inhibition of squalene synthase (formation of squalene from tritiated farnesyl pyrophosphate, rat liver microsomes)
REPORTED_CONDITIONS: rat liver microsomal protein; 20 μM 1-[3H]-farnesyl pyrophosphate; 15 minutes; 37° C.; read-out: IC50 (concentration which results in a 50% inhibition of squalene production)
MEASUREMENT_TYPE: IC50 (nM)
Express the result in nM but write the number alone.

Fill in: Squalene synthase (Rattus norvegicus, UniProt Q02769) IC50 for c1ccc(-c2ccc(CNC3CN4CCC3CC4)cc2)cc1 (stereo not shown) [Example 5] = 140
